- EXPERIMENTAL TARGET: PI3K delta (Homo sapiens, UniProt O00329)
- Construct: for the full-length p110-d subunit are generated and fused by overlapping PCR; His tag (C); made in house; host or cells: baculovirus BV1060; Tn5 (Trichoplusia ni) or TiniPro insect cells
- Sequence (O00329 with tags, fused parts or gaps limits assumed, species assumed): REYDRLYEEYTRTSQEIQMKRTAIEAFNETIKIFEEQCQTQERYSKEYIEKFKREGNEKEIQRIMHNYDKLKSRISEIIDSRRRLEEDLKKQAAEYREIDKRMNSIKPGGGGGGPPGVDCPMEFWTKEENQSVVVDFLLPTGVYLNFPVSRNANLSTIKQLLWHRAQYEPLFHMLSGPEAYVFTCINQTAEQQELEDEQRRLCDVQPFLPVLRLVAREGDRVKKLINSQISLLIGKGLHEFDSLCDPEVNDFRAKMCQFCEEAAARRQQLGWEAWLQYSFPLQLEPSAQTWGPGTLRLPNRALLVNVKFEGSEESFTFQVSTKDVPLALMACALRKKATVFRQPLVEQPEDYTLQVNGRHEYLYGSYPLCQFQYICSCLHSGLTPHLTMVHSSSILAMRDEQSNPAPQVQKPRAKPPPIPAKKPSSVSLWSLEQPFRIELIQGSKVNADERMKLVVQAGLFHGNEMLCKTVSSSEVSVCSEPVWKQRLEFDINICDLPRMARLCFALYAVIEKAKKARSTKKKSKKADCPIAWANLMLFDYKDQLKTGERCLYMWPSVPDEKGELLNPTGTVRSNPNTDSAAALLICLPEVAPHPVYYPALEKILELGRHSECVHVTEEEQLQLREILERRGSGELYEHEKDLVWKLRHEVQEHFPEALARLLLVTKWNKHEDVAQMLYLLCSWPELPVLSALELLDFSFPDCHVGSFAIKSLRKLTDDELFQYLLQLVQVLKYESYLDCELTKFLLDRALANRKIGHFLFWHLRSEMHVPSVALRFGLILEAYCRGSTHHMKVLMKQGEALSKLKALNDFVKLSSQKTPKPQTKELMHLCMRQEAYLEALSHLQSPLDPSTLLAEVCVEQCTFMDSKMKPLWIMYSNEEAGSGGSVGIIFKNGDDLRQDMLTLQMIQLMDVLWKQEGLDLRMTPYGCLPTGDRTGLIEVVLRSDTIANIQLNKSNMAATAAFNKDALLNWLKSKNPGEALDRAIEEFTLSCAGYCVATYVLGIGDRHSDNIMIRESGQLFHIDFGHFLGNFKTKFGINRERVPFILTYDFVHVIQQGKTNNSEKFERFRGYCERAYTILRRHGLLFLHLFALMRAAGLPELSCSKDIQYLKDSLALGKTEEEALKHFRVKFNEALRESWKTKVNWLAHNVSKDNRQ
- EXPERIMENT: Enzymatic PI3K delta isoform inhibition (lipid kinase activity, Kinase-Glo)
- Format: biochemical
- ASSAY CONTEXT: enzymatic assay
VALUE KIND: IC50 (nM)
Value expressed in nM; do not type the unit.

Solved entries (count: 3):
CCN(CC)S(=O)(=O)c1cc(-c2ccc3ncnc(-c4cccc(C(=O)N5CCN(C)CC5)c4)c3c2)ccc1OC
12.5
COc1ccc(-c2ccc3ncnc(-c4cccc(C(=O)N5CCOC(C)(C)C5)c4)c3c2)cn1
9
COc1ncc(-c2ccc3ncnc(-c4cccc(C(=O)N5C[C@@H]6C[C@H]5CN6C)c4)c3c2)cc1C(F)(F)F
3

# get_value(readout='IC50', item= `COc1ccc(-c2ccc3ncnc(-c4cccc(C(=O)N5CCN(C)CC5)c4)c3c2)cc1S(=O)(=O)N1CCOCC1` ) 14.5

# get_value(readout='IC50', item= `COc1ccc(-c2ccc3ncnc(-c4cc(Cl)cc(C(=O)N5CCN(C(C)=O)CC5)c4)c3c2)cn1` ) 5

====

- EXPERIMENTAL TARGET: PI3K alpha (Homo sapiens, UniProt P42336)
- Construct: for the p110-a subunit (with a deletion of the first 20 amino acids) are generated; His tag (C); made in house; host or cells: baculovirus BV1075; Tn5 (Trichoplusia ni) or TiniPro insect cells
- Sequence (P42336 with tags, fused parts or gaps limits assumed, species assumed): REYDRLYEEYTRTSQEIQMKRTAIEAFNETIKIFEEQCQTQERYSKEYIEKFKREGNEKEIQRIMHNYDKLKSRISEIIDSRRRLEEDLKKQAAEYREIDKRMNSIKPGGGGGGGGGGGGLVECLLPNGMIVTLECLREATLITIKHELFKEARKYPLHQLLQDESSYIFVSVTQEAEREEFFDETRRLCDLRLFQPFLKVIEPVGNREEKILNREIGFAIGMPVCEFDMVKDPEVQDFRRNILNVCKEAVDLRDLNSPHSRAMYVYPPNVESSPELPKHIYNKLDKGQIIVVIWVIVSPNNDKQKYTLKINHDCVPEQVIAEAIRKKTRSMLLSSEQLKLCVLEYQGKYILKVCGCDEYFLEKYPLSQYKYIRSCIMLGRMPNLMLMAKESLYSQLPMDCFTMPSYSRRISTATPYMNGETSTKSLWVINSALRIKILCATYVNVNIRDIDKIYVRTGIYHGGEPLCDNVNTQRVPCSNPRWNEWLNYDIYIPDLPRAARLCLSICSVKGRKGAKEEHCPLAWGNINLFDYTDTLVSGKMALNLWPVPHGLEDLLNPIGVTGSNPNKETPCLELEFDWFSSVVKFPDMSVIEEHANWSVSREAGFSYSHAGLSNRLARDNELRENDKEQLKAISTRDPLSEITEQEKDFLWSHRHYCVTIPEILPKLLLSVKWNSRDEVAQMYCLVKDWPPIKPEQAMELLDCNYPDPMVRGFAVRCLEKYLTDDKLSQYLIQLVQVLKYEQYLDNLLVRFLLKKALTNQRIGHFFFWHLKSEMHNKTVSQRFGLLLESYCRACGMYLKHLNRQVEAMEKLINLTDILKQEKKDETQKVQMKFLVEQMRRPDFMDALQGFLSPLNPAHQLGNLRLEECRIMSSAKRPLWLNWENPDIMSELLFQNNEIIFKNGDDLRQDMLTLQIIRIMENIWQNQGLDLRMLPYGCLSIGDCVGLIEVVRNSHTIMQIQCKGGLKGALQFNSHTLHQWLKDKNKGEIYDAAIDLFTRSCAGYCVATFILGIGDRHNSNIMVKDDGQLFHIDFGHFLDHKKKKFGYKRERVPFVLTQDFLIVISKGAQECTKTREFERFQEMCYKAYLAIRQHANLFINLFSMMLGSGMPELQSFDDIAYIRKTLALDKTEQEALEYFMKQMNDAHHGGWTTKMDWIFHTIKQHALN
- EXPERIMENT: Enzymatic PI3K alpha isoform inhibition (lipid kinase activity, Kinase-Glo)
- Type: biochemical
- ASSAY CONTEXT: enzymatic assay
molecules and their reported IC50
Value expressed in nM; do not type the unit.

Solved entries (count: 6):
COc1ncc(-c2ccc3ncnc(-c4cccc(C(=O)N5CCS(=O)(=O)CC5)c4)c3c2)cc1C#N
418
COc1ccc(-c2ccc3ncnc(-c4cccc(C(=O)N5C[C@@H]6C[C@H]5CN6)c4)c3c2)cc1C(F)(F)F
770
COc1ncc(-c2ccc3ncnc(-c4ccnc(C(=O)N5CCN(C(C)=O)CC5)c4)c3c2)cc1C#N
979
CN1CCN(C(=O)c2cccc(-c3ncnc4ccc(-c5cncc(S(C)(=O)=O)c5)cc34)c2)CC1
400
COc1ccc(-c2ccc3ncnc(-c4cc(C)cc(C(=O)N5CCN(C(C)=O)CC5)c4)c3c2)cn1
158
CNc1ncc(-c2ccc3ncnc(-c4cncc(C(=O)N5CCN(C)CC5)c4)c3c2)cc1C
320

# get_value(readout='IC50', item= `CCN(CC)S(=O)(=O)c1cc(-c2ccc3ncnc(-c4cccc(C(=O)N5CCN(C)CC5)c4)c3c2)ccc1OC` ) 931

# get_value(readout='IC50', item= `COc1ccc(-c2ccc3ncnc(-c4cccc(C(=O)N5CCN(C(C)=O)CC5)c4)c3c2)cc1S(=O)(=O)N1CCCC1` ) 712

# get_value(readout='IC50', item= `COc1ccc(-c2ccc3ncnc(-c4cncc(C(=O)N5CCN(C(C)=O)CC5)c4)c3c2)cn1` ) 189

# get_value(readout='IC50', item= `COc1ccc(-c2ccc3ncnc(-c4cc(Cl)cc(C(=O)N5CCN(C(C)=O)CC5)c4)c3c2)cn1` ) 716

# get_value(readout='IC50', item= `COc1ccc(-c2ccc3ncnc(-c4cccc(C(=O)N5CCNC[C@H]5C)c4)c3c2)cn1` ) 463

====

- EXPERIMENTAL TARGET: PI3K alpha (Homo sapiens)
- Construct: for the p110-a subunit (with a deletion of the first 20 amino acids) are generated; His tag (C); Tn5 (Trichoplusia ni) or TiniPro insect cells
- EXPERIMENT: Enzymatic PI3K alpha isoform inhibition (lipid kinase activity, Kinase-Glo)
- ASSAY CONTEXT: enzymatic assay
compounds and their reported IC50
Value expressed in µM; do not type the unit.

Solved entries (count: 3):
COc1ccc(-c2ccc3ncnc(-c4cncc(C(=O)N5CCN(C)CC5)c4)c3c2)cc1C(F)(F)F
0.645
COc1ncc(-c2ccc3ncnc(-c4cncc(C(=O)N5CCOCC5)c4)c3c2)cn1
1.03
COc1ccc(-c2ccc3ncnc(-c4cccc(C(=O)N5CCCN(C)CC5)c4)c3c2)cn1
0.196

Turning to the following compound.
# get_value(readout='IC50', item= `COc1ncc(-c2ccc3ncnc(-c4cc(C(=O)N5CCN(C(C)=O)CC5)cc(C(F)(F)F)c4)c3c2)cn1` ) 3.29

====

compounds and their reported IC50
- EXPERIMENTAL TARGET: PI3K delta (Homo sapiens)
- Construct: for the full-length p110-d subunit are generated and fused by overlapping PCR; His tag (C); made in house; host or cells: baculovirus BV1060; Tn5 (Trichoplusia ni) or TiniPro insect cells
- EXPERIMENT: Enzymatic PI3K delta isoform inhibition (lipid kinase activity, Kinase-Glo)
- Assay type: biochemical
- ASSAY CONTEXT: enzymatic assay
Value expressed in nM; do not type the unit.

# get_value(readout='IC50', item= `COc1ncc(-c2ccc3ncnc(-c4cncc(C(=O)N5CCN(C)CC5)c4)c3c2)cc1C#N` ) 11

# get_value(readout='IC50', item= `COc1ccc(-c2ccc3ncnc(-c4cncc(C(=O)N5C[C@@H]6C[C@H]5CN6C)c4)c3c2)cn1` ) 14

====

- EXPERIMENTAL TARGET: PI3K delta (Homo sapiens)
- Construct: for the full-length p110-d subunit are generated and fused by overlapping PCR; His tag (C); made in house; host or cells: baculovirus BV1060; Tn5 (Trichoplusia ni) or TiniPro insect cells
- EXPERIMENT: Enzymatic PI3K delta isoform inhibition (lipid kinase activity, Kinase-Glo)
- Type: biochemical
- ASSAY CONTEXT: enzymatic assay
compounds and their reported pIC50
In simple prose, pIC50 is minus the logarithm base ten of a concentration in moles per litre.

COc1ccc(-c2ccc3ncnc(-c4cncc(C(=O)N5CCCN(C)CC5)c4)c3c2)cn1 [Example 76]
7.63
CCOc1ncc(-c2ccc3ncnc(-c4cccc(C(=O)N5CCN(C)CC5)c4)c3c2)cc1C(F)(F)F [Example 42]
8.22
COc1ccc(-c2ccc3ncnc(-c4ccc(C)c(C(=O)N5CC6CC5CN6C)c4)c3c2)cn1 (centres unmarked) [Example 117]
8.05
COc1ccc(-c2ccc3ncnc(-c4cccc(C(=O)N5CC6CC5CN6)c4)c3c2)cn1 (centres unmarked) [Example 38]
8.15
COc1ncc(-c2ccc3ncnc(-c4cncc(C(=O)N5CCOC(C)(C)C5)c4)c3c2)cc1C(F)(F)F [Example 61]
8.52

# get_value(readout='pIC50', item= COc1ccc(-c2ccc3ncnc(-c4cncc(C(=O)N5C[C@@H]6C[C@H]5CN6)c4)c3c2)cc1C(F)(F)F [Example 85] ) 8.15

# get_value(readout='pIC50', item= COc1ccc(-c2ccc3ncnc(-c4ccc(C)c(C(=O)N5CCN(C)CC5)c4)c3c2)cn1 [Example 115] ) 7.37

# get_value(readout='pIC50', item= COc1ncc(-c2ccc3ncnc(-c4cccc(C(=O)N5CCOC(C)(C)C5)c4)c3c2)cc1C#N [Example 31] ) 8.22

# get_value(readout='pIC50', item= COc1ncc(-c2ccc3ncnc(-c4cncc(C(=O)N5CCN(C(C)=O)CC5)c4)c3c2)cc1C(F)(F)F [Example 54] ) 8.52

# get_value(readout='pIC50', item= COc1ncc(-c2ccc3ncnc(-c4cncc(C(=O)N5CCN(C)CC5)c4)c3c2)cc1F [Example 55] ) 8.03

====

- EXPERIMENTAL TARGET: PI3K delta (Homo sapiens)
- Construct: for the full-length p110-d subunit are generated and fused by overlapping PCR; His tag (C); made in house; host or cells: baculovirus BV1060; Tn5 (Trichoplusia ni) or TiniPro insect cells
- EXPERIMENT: Enzymatic PI3K delta isoform inhibition (lipid kinase activity, Kinase-Glo)
- Format: biochemical
- ASSAY CONTEXT: enzymatic assay
compounds and their reported IC50

Solved entries (count: 2):
COc1ccc(-c2ccc3ncnc(-c4cccc(C(=O)N5CCS(=O)(=O)CC5)c4)c3c2)cn1
< 3 nM
COc1ncc(-c2ccc3ncnc(-c4cncc(C(=O)N5CCN(C)C(C)(C)C5)c4)c3c2)cc1F
< 3 nM

Turning to the following compound.
# get_value(readout='IC50', item= `COc1ncc(-c2ccc3ncnc(-c4cccc(C(=O)N5CCN(C(C)=O)CC5)c4)c3c2)cc1F` ) < 3 nM
